target: mMOR (Mus musculus, UniProt P42866); construct: expressed in transfected cells; assay: [35S]GTPγS functional assay, mMOR; assay type: biochemical
Sequence (P42866 whole entry): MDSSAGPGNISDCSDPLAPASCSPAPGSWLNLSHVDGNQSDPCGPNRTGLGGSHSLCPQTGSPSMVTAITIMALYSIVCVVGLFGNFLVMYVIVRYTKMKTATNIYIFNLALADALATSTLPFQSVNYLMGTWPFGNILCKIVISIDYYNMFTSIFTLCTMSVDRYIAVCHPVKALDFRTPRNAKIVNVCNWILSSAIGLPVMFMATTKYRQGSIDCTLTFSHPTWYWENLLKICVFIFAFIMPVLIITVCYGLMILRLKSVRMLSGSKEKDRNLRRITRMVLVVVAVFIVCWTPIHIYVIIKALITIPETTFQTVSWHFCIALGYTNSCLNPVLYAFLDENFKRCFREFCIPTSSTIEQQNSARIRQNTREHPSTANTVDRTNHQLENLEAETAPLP
Listed below: Emax values for each entry.

| COMPOUND | Emax |
| --- | --- |
| O=C(N[C@@H]1CCC2C3Cc4ccc(O)c5c4C2(CCN3CC2CC2)C1O5)c1cccc(I)c1 (some centres unmarked) | 68% |
| N=C(N)NCc1cccc(C(=O)N[C@@H]2CCC3C4Cc5ccc(O)c6c5[C@@]3(CCN4CC3CC3)C2O6)c1 (some centres unmarked) | 54% |
| CO[C@@]12CC[C@@H](NC(=O)c3cccc(I)c3)C3Oc4c(O)ccc5c4[C@@]31CCN(CC1CC1)C2C5 (some centres unmarked) | 81.2% |
| NCc1cccc(C(=O)NC2CCC3C4Cc5ccc(O)c6c5C3(CCN4CC3CC3)C2O6)c1 (centres unmarked) | 41% |
| O=C(N[C@@H]1CC[C@@]2(O)C3Cc4ccc(O)cc4[C@@]2(CCN3CC2CC2)C1)c1cccc(I)c1 | 45% |
